Property: selectivity ratio; scope: individual molecules
METHOD_DESCRIPTION: Therapeutic index, ratio of HC50 for human RBC to MIC for Escherichia coli DSM 1103
Format: toxicity
CONDITION_LABEL: human red blood cells versus Escherichia coli DSM 1103
Output: the number by itself.

Previously resolved entries follow.
SAMPLE_SMILES	selectivity ratio
Cc1sc2cc1C1=C(CCC1)c1cc(sc1C)C(=O)[C@H]1CCCN1C(=O)[C@H](C(C)C)NC(=O)[C@H](CCCN)NC(=O)[C@H](C(C)C)NC(=O)[C@@H]1CCCN1C(=O)[C@@H](Cc1ccccc1)NC(=O)[C@H](C(C)C)NC(=O)[C@H](CCCN)NC(=O)[C@H](CC(=O)NC(C)C)NC2=O	1.6
CCCCN1C(=O)[C@@H](Cc2ccccc2)NC(=O)[C@H](CC(C)C)NC(=O)[C@H](CCCN)NC(=O)[C@H]([C@@H](C)CC)NC(=O)C2=CC3=C4CCCC4=C4C=C(S[C@]4(C)[C@@]3(C)S2)C(=O)[C@H]2CCCN2C(=O)[C@H](CC(C)C)NC(=O)[C@H](CCCN)NC(=O)[C@H]([C@@H](C)CC)NC(=O)[C@@H]1CC(C)C	0.1

Lab note: `CC(C)[C@@H]1NC(=O)[C@H](CCCN)NC(=O)[C@H]([C@H](O)C(C)C)NC(=O)C2=CC3=C4CCCC4=C4C=C(S[C@]4(C)[C@@]3(C)S2)C(=O)[C@H]2CCCN2C(=O)[C@H](C(C)C)NC(=O)[C@H](CCCN)NC(=O)[C@H](C(C)C)NC(=O)[C@@H]2CCCN2C(=O)[C@@H](Cc2ccccc2)NC1=O` gave selectivity ratio of 1.8

* * *

Test system: HeLa
METHOD_DESCRIPTION: Cytotoxicity against human HeLa cells assessed as reduction in cell viability after 24 hrs by MTT assay
Assay type: functional, cell-based
TEST_READOUT: log10 of IC50 (log10 of the value in µM)
In our notation, the value equals log10 of IC50 in µM.

For reference, reported log10 of IC50 for `Cc1sc2cc1C1=C(CCC1)c1cc(sc1C)C(=O)[C@H]1CCCN1C(=O)[C@H](C(C)C)NC(=O)[C@H](CCCN)NC(=O)[C@H](C(C)C)NC(=O)[C@@H]1CCCN1C(=O)[C@@H](Cc1ccccc1)NC(=O)[C@H](C(C)C)NC(=O)[C@H](CCCN)NC(=O)[C@H](CC(=O)NC(C)C)NC2=O` stands at 1.82

log10 of IC50 recorded for this compound, `Cc1sc2cc1C1=C(CCC1)c1cc(sc1C)C(=O)[C@H]1CCCN1C(=O)[C@H](C(C)C)NC(=O)[C@H](CCCN)NC(=O)[C@H](C(C)C)NC(=O)[C@@H]1CCCN1C(=O)[C@@H](Cc1ccccc1)NC(=O)[C@H](C(C)C)NC(=O)[C@H](CCCN)NC(=O)[C@H]([C@H](O)C(C)C)NC2=O` , is 1.40

The compound identified as `CC(C)[C@@H]1NC(=O)C2=CC3=C4CCCC4=C4C=C(S[C@]4(C)[C@@]3(C)S2)C(=O)[C@H]2CCCN2C(=O)[C@H]([C@@H](C)O)NC(=O)[C@H](CCCN)NC(=O)[C@H](C(C)C)NC(=O)[C@@H]2CCCN2C(=O)[C@@H](Cc2ccccc2)NC(=O)[C@H](C(C)C)NC(=O)[C@H](CCCN)NC1=O` registered its log10 of IC50 at 2.18

log10 of IC50 reported for this compound `CC(C)C[C@@H]1NC(=O)[C@H](CCCCN)NC(=O)[C@H](C(C)C)NC(=O)C2=CC3=C4CCCC4=C4C=C(S[C@]4(C)[C@@]3(C)S2)C(=O)[C@H]2CCCN2C(=O)[C@H](CC(C)C)NC(=O)[C@H](CCCCN)NC(=O)[C@H](C(C)C)NC(=O)[C@H](CCCCN)NC(=O)[C@H](CC(C)C)NC(=O)[C@@H]2CCCN2C(=O)[C@@H](Cc2ccccc2)NC(=O)[C@H](C(C)C)NC(=O)[C@H](CCCCN)NC1=O` : 1.45

Lab book: log10 of IC50 of `CCCCN1C(=O)[C@@H](Cc2ccccc2)NC(=O)[C@H](CC(C)C)NC(=O)[C@H](CCCN)NC(=O)[C@H]([C@@H](C)CC)NC(=O)C2=CC3=C4CCCC4=C4C=C(S[C@]4(C)[C@@]3(C)S2)C(=O)[C@H]2CCCN2C(=O)[C@H](CC(C)C)NC(=O)[C@H](CCCN)NC(=O)[C@H]([C@@H](C)CC)NC(=O)[C@@H]1CC(C)C` noted as 1.11

For record `Cc1sc2cc1C1=C(CCC1)c1cc(sc1C)C(=O)[C@H]1CCCN1C(=O)[C@H](CCCCN)NC(=O)[C@H](C13CC4CC(CC(C4)C1)C3)NC(=O)[C@H](CCCN)NC(=O)[C@@H]1CCCN1C(=O)[C@@H](Cc1ccccc1)NC(=O)[C@H](CCCN)NC(=O)[C@H](C13CC4CC(CC(C4)C1)C3)NC(=O)[C@H](CCCN)NC2=O` the listed log10 of IC50 is 1.04

Entry `CC(C)C[C@@H]1NC(=O)C2=CC3=C4CCCC4=C4C=C(S[C@]4(C)[C@@]3(C)S2)C(=O)[C@H]2CCCN2C(=O)[C@H](C(C)C)NC(=O)[C@H](CCCCN)NC(=O)[C@H](CC(C)C)NC(=O)[C@H](CCCCN)NC(=O)[C@@H]2CCCN2C(=O)[C@@H](Cc2ccccc2)NC(=O)[C@H](CCCCN)NC(=O)[C@H](C(C)C)NC(=O)[C@H](CCCCN)NC1=O` ; log10 of IC50 = 1.91

Sample `CC(C)C[C@@H]1NC(=O)[C@H](CCCN)NC(=O)[C@H](CCCN)NC(=O)C2=CC3=C4CCCC4=C4C=C(S[C@]4(C)[C@@]3(C)S2)C(=O)[C@H]2CCCN2C(=O)[C@H](CC(C)C)NC(=O)[C@H](CCCN)NC(=O)[C@H](C(C)C)NC(=O)[C@@H]2CCCN2C(=O)[C@@H](Cc2ccccc2)NC1=O` ; log10 of IC50 observed: 1.08

Notebook: `Cc1sc2cc1C1=C(CCC1)c1cc(sc1C)C(=O)[C@H]1CCCN1C(=O)[C@H](C(C)C)NC(=O)[C@H](CCCCN)NC(=O)[C@H](CC(C)C)NC(=O)[C@H](CCCCN)NC(=O)[C@@H]1CCCN1C(=O)[C@@H](Cc1ccccc1)NC(=O)[C@H](CCCCN)NC(=O)[C@H](C(C)C)NC(=O)[C@H](CCCCN)NC(=O)[C@H](CC(C)C)NC2=O` , log10 of IC50 read as 1.61

`CC(C)C[C@@H]1NC(=O)[C@H](CCCCN)NC(=O)[C@H](C(C)C)NC(=O)C2=CC3=C4CCCC4=C4C=C(S[C@]4(C)[C@@]3(C)S2)C(=O)[C@H]2CCCN2C(=O)[C@H](C(C)C)NC(=O)[C@H](CCCCN)NC(=O)[C@H](C(C)C)NC(=O)[C@H](CC(C)C)NC(=O)[C@@H](CCCCN)NC(=O)[C@@H]2CCCN2C(=O)[C@@H](Cc2ccccc2)NC(=O)[C@H](C(C)C)NC(=O)[C@H](CCCCN)NC1=O` yielded log10 of IC50 of 1.26

# credit: ChEMBL document CHEMBL4257585
